Numbers sourced from ChEMBL document CHEMBL1130957.

Target: 5-hydroxytryptamine receptor 1A (Homo sapiens) (UniProt P08908)
Assay: Antagonistic efficacy as adenylyl cyclase assay in CHO cells expressing human 5-HT1A receptor (experiment 1)
Format: functional, cell-based
endpoint-label: Efficacy (%)
Give the value in % but do not write % after it.

# chemical-string, Efficacy [%]
rows = [
    ("c1ccc(CCCCN2CCN(c3cccc4c3OCCO4)CC2)cc1", 74),
    ("O=C1c2ccccc2C(=O)N1CCCCN1CCN(c2cccc3c2OCCO3)CC1", 55),
    ("O=C(NCCCCN1CCN(c2cccc3c2OCCO3)CC1)c1ccc(F)cc1", 17),
]

Here's the next entry for you.
// Efficacy lookup, molecule = O=C(CCCN1CCN(c2cccc3c2OCCO3)CC1)c1ccc(F)cc1 , result: 22

* * *

Target: 5-hydroxytryptamine receptor 1A (Homo sapiens, UniProt P08908)
Experiment: Compound was tested for its potency against human 5-hydroxytryptamine 1A receptor expressed in CHO cells (experiment 2)
Assay type: functional, cell-based
Some compounds, each annotated with its measured EC50.
Give the value in nM but do not write nM after it.

The examples below pair each entry with its known result.
# chemical-string, system-tested, EC50 [nM]
measured = [
    ("O=C(NCCN1CCN(c2cccc3c2OCCO3)CC1)c1ccc(F)cc1", "5-hydroxytryptamine receptor 1A (Homo sapiens, UniProt P08908)", 0.851),
    ("O=C(CCCN1CCN(c2cccc3c2OCCO3)CC1)c1ccc(F)cc1", "5-hydroxytryptamine receptor 1A (Homo sapiens, UniProt P08908)", 7.41),
    ("O=C1c2ccccc2C(=O)N1CCCCN1CCN(c2cccc3c2OCCO3)CC1", "5-hydroxytryptamine receptor 1A (Homo sapiens, UniProt P08908)", 5.75),
    ("O=C(NCCCCN1CCN(c2cccc3c2OCCO3)CC1)c1ccc(F)cc1", "5-hydroxytryptamine receptor 1A (Homo sapiens, UniProt P08908)", 31.6),
    ("O=C(CCCN1CCN(c2cccc3c2OCCO3)CC1)c1ccccc1", "5-hydroxytryptamine receptor 1A (Homo sapiens, UniProt P08908)", 2.82),
]

// EC50 lookup, compound = c1ccc(CCCCN2CCN(c3cccc4c3OCCO4)CC2)cc1 , result: 6.03

* * *

Lab note: EC50 readings collected with 5-hydroxytryptamine receptor 1A (Homo sapiens) for the following compounds.
Give the value in nM but do not write nM after it.

# compound, measurement-units, EC50
records = [
    ("O=C(NCCN1CCN(c2cccc3c2OCC(CO)O3)CC1)c1ccc(F)cc1 (single isomer, unassigned) [FLESINOXAN]", "nM", 6.61),
]

Response field EC50 (5-hydroxytryptamine receptor 1A (Homo sapiens)) for item O=C1c2ccccc2S(=O)(=O)N1CCCCN1CCN(c2ncccn2)CC1 [IPSAPIRONE] : 67.6

* * *

Molecular target: 5-hydroxytryptamine receptor 1A (Homo sapiens)
Sequence (whole entry): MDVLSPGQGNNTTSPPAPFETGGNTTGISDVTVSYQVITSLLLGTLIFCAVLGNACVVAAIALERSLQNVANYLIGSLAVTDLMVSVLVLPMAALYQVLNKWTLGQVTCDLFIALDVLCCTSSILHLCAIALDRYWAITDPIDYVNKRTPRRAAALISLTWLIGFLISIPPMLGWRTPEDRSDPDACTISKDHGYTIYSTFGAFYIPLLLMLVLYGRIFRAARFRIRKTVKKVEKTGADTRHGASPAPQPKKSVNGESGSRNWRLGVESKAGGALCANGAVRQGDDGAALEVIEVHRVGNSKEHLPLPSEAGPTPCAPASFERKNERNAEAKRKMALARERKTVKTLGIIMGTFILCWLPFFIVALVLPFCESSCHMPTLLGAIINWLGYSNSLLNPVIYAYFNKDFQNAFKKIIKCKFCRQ
Assay: Agonistic efficacy as adenylyl cyclase assay in CHO cells expressing human 5-HT1A receptor (experiment 1)
Assay type: functional, cell-based
endpoint-label: Efficacy (%)
Give the value in % but do not write % after it.

# chemical-string, system-tested, Efficacy [%]
rows = [
    ("O=C1c2ccccc2C(=O)N1CCN1CCN(c2cccc3c2OCCO3)CC1", "5-hydroxytryptamine receptor 1A (Homo sapiens)", 0),
    ("O=C1c2ccccc2S(=O)(=O)N1CCCCN1CCN(c2cccc3c2OCCO3)CC1", "5-hydroxytryptamine receptor 1A (Homo sapiens)", 11),
    ("O=C1c2ccccc2S(=O)(=O)N1CCCCN1CCN(c2cc(Cl)cc3c2OCCO3)CC1", "5-hydroxytryptamine receptor 1A (Homo sapiens)", 0),
    ("O=C(NCCN1CCN(c2cccc3c2OCCO3)CC1)c1ccc(F)cc1", "5-hydroxytryptamine receptor 1A (Homo sapiens)", 97),
]

// Efficacy lookup, compound = O=C1c2ccccc2S(=O)(=O)N1CCN1CCN(c2cccc3c2OCCO3)CC1 , result: 97
